# TARGET_ENTITY: Potassium-transporting ATPase (Sus scrofa) (UniProt P18434+P19156)
# EXPERIMENT_DESCRIPTION: Inhibition of procine gastric H+,K+-ATPase at 10 uM in vitro.
# Assay type: tissue-based
# DETAILS: Stomach
// reported inhibition for each item listed
MEASURED_ATTRIBUTE: inhibition (%)

COMPOUND	MEASURED_ATTRIBUTE	RECORDED_MEASUREMENT
C=C1CCC(C)=CCC1CC(O[Si](C)(C)C(C)(C)C)c1ccccc1I (stereo not drawn)	inhibition	63
C[C@]12CC[C@]3(C1)C(=CC(=O)c1ccccc13)C[C@@H]2O	inhibition	17
CO[C@H]1C[C@@H]2C[C@@H]3OC(=O)c4cccc(c43)[C@]23CC[C@@]1(C)C3	inhibition	16

These data points were gathered from ChEMBL document CHEMBL1150552.
